# experimental-target: rat MCH1 receptor (Rattus norvegicus)
# Construct: expressed in transfected cells
# Sequence (P97639 whole entry): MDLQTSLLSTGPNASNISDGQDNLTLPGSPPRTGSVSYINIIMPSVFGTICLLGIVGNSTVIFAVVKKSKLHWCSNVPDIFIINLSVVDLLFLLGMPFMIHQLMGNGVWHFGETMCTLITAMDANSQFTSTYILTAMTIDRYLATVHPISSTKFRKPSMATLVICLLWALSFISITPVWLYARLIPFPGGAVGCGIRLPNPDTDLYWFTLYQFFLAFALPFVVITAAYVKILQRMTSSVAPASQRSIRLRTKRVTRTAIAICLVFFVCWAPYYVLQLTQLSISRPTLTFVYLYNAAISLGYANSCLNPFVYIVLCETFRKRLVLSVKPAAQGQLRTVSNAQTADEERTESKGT
# protocol-text: Binding affinity (Ki) at the rat MCH1 receptor
# test-conditions: Table 3c; read-out: rMCH1 Ki
pKi listing for selected compounds.
FYI, pKi means -log10 of a concentration in mol per litre.

COCC1=C(C(=O)OC)[C@H](c2ccc(F)c(F)c2)N(C(=O)NCCCN2CCC(c3cccc(N)c3)CC2)C(=O)N1 [Example 38] | 8.87
CC(C)C(=O)Nc1cccc(C2CCN(CC[C@@H](Oc3cc(C(F)(F)F)ccc3F)c3ccccc3)CC2)c1 [Example 121] | 7.77
O=C(CCCN1CCC(c2cccc(NC(=O)C3CCCCC3)c2)CC1)c1ccc(Cl)cc1 [Example 67] | 6.71
CC(=O)c1ccccc1O[C@H](CCN1CCC(c2cccc(NC(=O)C(C)C)c2)CC1)c1ccccc1 [Example 120] | 7.83
COc1ccc(C(=O)CCCN2CCC(c3cccc(NC(=O)C(C)C)c3)CC2)c(OC)c1 [Example 78] | 7.28

Record for CC(=O)c1cccc(O[C@@H](CCN2CCC(c3cccc(NC(=O)C(C)C)c3)CC2)c2ccccc2)c1 [Example 141] under target or system rat MCH1 receptor (Rattus norvegicus): pKi reported as 8.49

Record for COc1cccc(CC(=O)Nc2cccc(C3CCN(CCCC(=O)c4ccc(C)c(C)c4)CC3)c2)c1 [Example 61] under target or system rat MCH1 receptor (Rattus norvegicus): pKi reported as 7.85

Record for CC(C)C(=O)Nc1cccc(C2CCN(Cc3cc(C(F)(F)F)cc(C(F)(F)F)c3)CC2)c1 [Example 103] under target or system rat MCH1 receptor (Rattus norvegicus): pKi reported as 7.28

Record for CC(C)C(=O)Nc1cccc(C2CCN(CC[C@H](Oc3ccc(Oc4ccccc4)cc3)c3ccccc3)CC2)c1 [Example 139] under target or system rat MCH1 receptor (Rattus norvegicus): pKi reported as 7.32
